# Test system: c-KIT V560G/D816V
# assay.info: Proliferation inhibitory activity on Ba/F3 cell (CellTiter-Glo, 72 hours), c-KIT V560G/D816V
# Type: cell-based
# study.conditions: Mus musculus, BaF3, c-KIT V560G/D816V cells, read-out: Cell (nM) c-KIT V560G/D816V (GI50 class)
# Experimental: Ba/F3-TEL-PDGFRα(WT), Ba/F3-TEL-PDGFβ(WT), Ba/F3-c-KIT(D816V) (Kyinno, #KC-0138), c-KIT V560G/D816V, c-KIT D814Y were seeded at 3×10^3/100 μl/well in a clear bottom white 96-well plate. […] After mixing well for about 10 minutes at room temperature, […] was measured using a microplate reader. The data were presented as percentages in proportion to treated cells based on the vehicle, GI50 (nM) values were calculated using GraphPad Prism 8.3.0 (GraphPad software Inc., San Diego). […]
Entries annotated with measured GI50

// worked examples, GI50 included
COCCN1CCC(COc2cc3ncnc(-c4ccc(NC(=O)C(C)(C)c5ccc(F)cc5)cc4)c3cc2OC)CC1
≤ 200 nM
CCN1CCC(COc2cc3ncnc(-c4ccc(NC(=O)CCc5ccccc5)cc4)c3cc2OC)CC1
≤ 200 nM

Report GI50 for COc1cc2c(-c3ccc(NC(=O)Cc4ccc(C(F)(F)F)cc4)cc3)ncnc2cc1OCCCN1CCN(C)CC1
≤ 200 nM

Report GI50 for COc1cc2c(-c3ccc(NC(=O)Cc4ccc(C(F)(F)F)cc4)cc3)ncnc2cc1OCCCN1CCn2c(nnc2C(F)(F)F)C1
≤ 200 nM

Report GI50 for COCCOc1cc2ncnc(-c3ccc(NC(=O)Cc4ccc(C(F)(F)F)cc4)cc3)c2cc1OC
≤ 200 nM
